- TEST_TARGET: PFPK5(P.falciparum) (Plasmodium falciparum)
- Sequence (P61075 whole entry, looked up): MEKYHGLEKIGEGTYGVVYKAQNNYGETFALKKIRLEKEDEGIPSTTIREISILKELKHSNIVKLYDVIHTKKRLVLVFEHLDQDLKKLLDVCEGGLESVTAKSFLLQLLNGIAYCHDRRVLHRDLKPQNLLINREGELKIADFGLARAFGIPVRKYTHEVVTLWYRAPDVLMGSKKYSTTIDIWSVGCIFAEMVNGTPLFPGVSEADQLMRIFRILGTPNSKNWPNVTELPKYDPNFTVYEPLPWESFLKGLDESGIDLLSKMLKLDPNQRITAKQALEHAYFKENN
pIC50: −log10 of the molar value.
QUANTITY_NAME: pIC50

SMILES_STRUCTURE	TEST_TARGET	pIC50
O=C1Nc2ccc(Br)cc2/C1=C\C(=O)c1ccc(F)cc1	PFPK5(P.falciparum) (Plasmodium falciparum)	3.72
O=C1Nc2ccc(Br)cc2/C1=C/C(=O)c1ccccc1	PFPK5(P.falciparum) (Plasmodium falciparum)	3.92
O=C1Nc2ccccc2/C1=C\C(=O)c1ccccc1	PFPK5(P.falciparum) (Plasmodium falciparum)	3.82

====

- TEST_TARGET: Cyclin-dependent kinase 1/cyclin B (Homo sapiens)
- ASSAY_TEXT: Inhibition of human Cyclin-dependent kinase 1 cyclin B
QUANTITY_NAME: IC50 (µM)

SMILES_STRUCTURE	IC50 [µM]
O=C1Nc2ccc(Br)cc2/C1=C/C(=O)c1ccccc1	30
O=C1Nc2ccc(Br)cc2/C1=C\C(=O)c1ccc(F)cc1	29

1. Cc1ccc(C(=O)/C=C2/C(=O)Nc3ccc(Br)cc32)cc1
2. O=C1Nc2ccccc2/C1=C/C(=O)c1ccc(Br)cc1
**Q:** Could you please tell me which of these two has the higher IC50: 1 or 2 ? Give the label of your selection.
**A:** 1
(1: 29 µM, 2: 12 µM)

====

pIC50: −log10 of the molar value.
Here's what we have: pIC50 numbers for Protein kinase Pfmrk (Plasmodium falciparum, UniProt P90584).

See these solved cases before continuing.
COMPOUND	VAL
CC[C@H](CO)Nc1nc(NCc2ccccc2)c2ncn(C(C)C)c2n1	< 3.00
O=C1NC(=S)S/C1=C1\C(=O)Nc2ccc(F)cc21	< 4.72
Cn1cnc2c(NCc3ccccc3)nc(NCCO)nc21	< 3.00
O=C1Nc2ccccc2/C1=C\C1CCCCN1 (stereo not given)	< 4.68

**Q:** Param readout= pIC50; system= Protein kinase Pfmrk (Plasmodium falciparum, UniProt P90584); entry= O=C1Nc2ccccc2/C1=C\c1ccc(Cl)cc1 ; returns value.
**A:** < 4.43
